# assayed target: UniProt P09391
# Sequence (P09391 whole entry): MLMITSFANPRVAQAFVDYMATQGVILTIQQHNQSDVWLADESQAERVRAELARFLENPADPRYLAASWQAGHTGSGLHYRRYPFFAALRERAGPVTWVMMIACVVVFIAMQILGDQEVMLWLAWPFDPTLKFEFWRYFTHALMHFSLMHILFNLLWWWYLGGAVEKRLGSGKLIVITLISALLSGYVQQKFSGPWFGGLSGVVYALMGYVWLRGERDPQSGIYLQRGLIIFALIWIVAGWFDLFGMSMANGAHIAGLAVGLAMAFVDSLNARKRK
measured attribute: IC50 (µM)
# output: bare number, implied unit µM

Query :: Check UniProt P09391 data and give IC50 for CC(=O)C(=O)[C@@H](NC(=O)[C@H](CCCNC(=N)N)NC(=O)[C@H](Cc1cnc[nH]1)NN[C@@H](C)C(=O)C(=O)NCCc1ccccc1)C(C)C [Compound 12] .
Result :: 0.55
